Attribution: patent US20240067758A1

Biological target: T1, Human IL22 (human, UniProt Q9GZX6 34-179)
T1 construct: IL22 of the Biacore and cell assays
T1 sequence: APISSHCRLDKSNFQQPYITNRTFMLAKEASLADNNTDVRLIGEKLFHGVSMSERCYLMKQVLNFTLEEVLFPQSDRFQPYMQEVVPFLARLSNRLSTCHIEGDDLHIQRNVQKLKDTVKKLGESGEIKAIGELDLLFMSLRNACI
Assay: SPR (Biacore); Fab variant, human IL22
pKd: −log10 of the molar value.

| Binder | pKd |
| --- | --- |
| 11041gL6 C91S gH8 D54E (Fab, V domains shown, V-regions only; also called 11041gL11gH15) VH: EVQLVESGGGLVQPGGSLRLSCAVSGFSLSSYAMIWVRQAPGKGLEWIGIIDIEGSTYYASWAKGRFTISRDSSKNTLYLQMNSLRAEDTAVYYCARDRFVGVDIFDPWGQGTLVTVSS VL: AVQLTQSPSSLSASVGDRVTITCQASEDIYTNLAWYQQKPGKAPKLLIYWASTLASGVPSRFSGSGSGTDFTLTISSLQPEDFATYYCQASVYGNSADSRYTFGGGTKVEIK | 9.98 |
| 11041gL1gH1 G55A (Fab, V domains shown, V-regions only; also called 11041gL1gH2) VH: EVQLVESGGGLVQPGGSLRLSCAVSGFSLSSYAMIWVRQAPGKGLEWIGIIDIDASTYYASWAKGRFTISRDSSKNTVYLQMNSLRAEDTAVYYCARDRFVGVDIFDPWGQGTLVTVSS VL: AVVLTQSPSSLSASVGDRVTITCQASEDIYTNLAWYQQKPGKAPKLLIYWASTLASGVPSRFSGSGSGTDFTLTISSLQPEDFATYYCQACVYGNSADSRYTFGGGTKVEIK | 9.20 |
| 11041gL1gH1 D107E (Fab, V domains shown, V-regions only; also called 11041gL1gH4) VH: EVQLVESGGGLVQPGGSLRLSCAVSGFSLSSYAMIWVRQAPGKGLEWIGIIDIDGSTYYASWAKGRFTISRDSSKNTVYLQMNSLRAEDTAVYYCARDRFVGVDIFEPWGQGTLVTVSS VL: AVVLTQSPSSLSASVGDRVTITCQASEDIYTNLAWYQQKPGKAPKLLIYWASTLASGVPSRFSGSGSGTDFTLTISSLQPEDFATYYCQACVYGNSADSRYTFGGGTKVEIK | 9.18 |
| 11041gL1 S96A gH1 D54E (Fab, V domains shown, V-regions only; also called 11041gL9gH3) VH: EVQLVESGGGLVQPGGSLRLSCAVSGFSLSSYAMIWVRQAPGKGLEWIGIIDIEGSTYYASWAKGRFTISRDSSKNTVYLQMNSLRAEDTAVYYCARDRFVGVDIFDPWGQGTLVTVSS VL: AVVLTQSPSSLSASVGDRVTITCQASEDIYTNLAWYQQKPGKAPKLLIYWASTLASGVPSRFSGSGSGTDFTLTISSLQPEDFATYYCQACVYGNAADSRYTFGGGTKVEIK | 10.05 |
| 11041gL6 C91S S96A gH11 D54E (Fab, V domains shown, also called 11041gL13gH17) VH: EVQLVESGGGLVQPGGSLRLSCAVSGFSLSSYAMIWVRQAPGKGLEWVGIIDIEGSTYYASWAKGRFTISRDNSKNTLYLQMNSLRAEDTAVYYCARDRFVGVDIFDPWGQGTLVTVSS VL: AVQLTQSPSSLSASVGDRVTITCQASEDIYTNLAWYQQKPGKAPKLLIYWASTLASGVPSRFSGSGSGTDFTLTISSLQPEDFATYYCQASVYGNAADSRYTFGGGTKVEIKR | 10.28 |
| 11041gL1gH1 D54E (Fab, V domains shown, V-regions only; also called 11041gL1gH3) VH: EVQLVESGGGLVQPGGSLRLSCAVSGFSLSSYAMIWVRQAPGKGLEWIGIIDIEGSTYYASWAKGRFTISRDSSKNTVYLQMNSLRAEDTAVYYCARDRFVGVDIFDPWGQGTLVTVSS VL: AVVLTQSPSSLSASVGDRVTITCQASEDIYTNLAWYQQKPGKAPKLLIYWASTLASGVPSRFSGSGSGTDFTLTISSLQPEDFATYYCQACVYGNSADSRYTFGGGTKVEIK | 9.78 |
| 11041gL6 C91S gH12 D54E (Fab, V domains shown, V-regions only; also called 11041gL11gH18) VH: EVQLVESGGGLVQPGGSLRLSCAVSGFSLSSYAMIWVRQAPGKGLEWISIIDIEGSTYYASWAKGRFTISRDNSKNTLYLQMNSLRAEDTAVYYCARDRFVGVDIFDPWGQGTLVTVSS VL: AVQLTQSPSSLSASVGDRVTITCQASEDIYTNLAWYQQKPGKAPKLLIYWASTLASGVPSRFSGSGSGTDFTLTISSLQPEDFATYYCQASVYGNSADSRYTFGGGTKVEIK | 10.35 |
| 11041gL1 C91S gH1 (Fab, V domains shown, V-regions only; also called 11041gL2gH1) VH: EVQLVESGGGLVQPGGSLRLSCAVSGFSLSSYAMIWVRQAPGKGLEWIGIIDIDGSTYYASWAKGRFTISRDSSKNTVYLQMNSLRAEDTAVYYCARDRFVGVDIFDPWGQGTLVTVSS VL: AVVLTQSPSSLSASVGDRVTITCQASEDIYTNLAWYQQKPGKAPKLLIYWASTLASGVPSRFSGSGSGTDFTLTISSLQPEDFATYYCQASVYGNSADSRYTFGGGTKVEIK | 10.91 |
| 11041gL1 C91S S96AgH17 (Fab, V domains shown, V-regions only; also called 11041gL10gH17; gH17 = gH11 D54E) VH: EVQLVESGGGLVQPGGSLRLSCAVSGFSLSSYAMIWVRQAPGKGLEWVGIIDIEGSTYYASWAKGRFTISRDNSKNTLYLQMNSLRAEDTAVYYCARDRFVGVDIFDPWGQGTLVTVSS VL: AVVLTQSPSSLSASVGDRVTITCQASEDIYTNLAWYQQKPGKAPKLLIYWASTLASGVPSRFSGSGSGTDFTLTISSLQPEDFATYYCQASVYGNAADSRYTFGGGTKVEIK | 10.40 |
| 11041gL7 C91S gH5 D54E (Fab, V domains shown, also called 11041gL12gH14) VH: EVQLVESGGGLVQPGGSLRLSCAVSGFSLSSYAMIWVRQAPGKGLEWIGIIDIEGSTYYASWAKGRFTISRDNSKNTVYLQMNSLRAEDTAVYYCARDRFVGVDIFDPWGQGTLVTVSS VL: AIQLTQSPSSLSASVGDRVTITCQASEDIYTNLAWYQQKPGKAPKLLIYWASTLASGVPSRFSGSGSGTDFTLTISSLQPEDFATYYCQASVYGNSADSRYTFGGGTKVEIK | 10.53 |
